# TEST_DESCRIPTION: stability testing in intestinal perfusate
# Type: in vitro ADME
# ASSAY_CONDITIONS: rat, intestinal perfusate, 37° C., read-out: t1/2 (min) Intestinal Perfusate
Where a SMILES comes first, the peptide text is derived from it.
Reported half-life values are given for each entry in this list.
Give the value, in units of min, as a plain number.

| COMPOUND | RECORDED_NUMBER |
| --- | --- |
| N=C(N)NCCC[C@@H](N)C(=O)N1[C@H](C(=O)N2CCC[C@H]2C(=O)NCC(=O)N[C@H](C(N)=O)C2Cc3ccccc3C2)C[C@@H]2CCCC[C@@H]21 [rOicPGIdg] (HELM PEPTIDE1{[dR].[O=C([C@@H]1C[C@@H]2CCCC[C@@H]2N1[*:1])[*:2]].P.G.[O=C([C@@H](N[*:1])C1Cc2ccccc2C1)[*:2]].[am]}$$$$V2.0) | 56.1 |

Now consider a different compound.
Asked: Complete the entry with half-life for N=C(N)NCCC[C@@H](N)C(=O)N1[C@H](C(=O)N2C[C@H](O)C[C@H]2C(=O)NCC(=O)N[C@H](C(N)=O)C2Cc3ccccc3C2)C[C@@H]2CCCC[C@@H]21 [rOicHypGIdg] (HELM PEPTIDE1{[dR].[O=C([C@@H]1C[C@@H]2CCCC[C@@H]2N1[*:1])[*:2]].[Hyp].G.[O=C([C@@H](N[*:1])C1Cc2ccccc2C1)[*:2]].[am]}$$$$V2.0)
Given back: 205

---

# TEST_DESCRIPTION: stability testing in intestinal homogenate
# Type: in vitro ADME
# ASSAY_CONDITIONS: rat
Where a SMILES comes first, the peptide text is derived from it.
MEASURED_ENDPOINT: stability in intestinal homogenate (FIG. 12)

| COMPOUND | RESULT |
| --- | --- |
| N=C(N)NCCC[C@@H](N)C(=O)N1[C@H](C(=O)N2CCC[C@H]2C(=O)O)C[C@@H]2CCCC[C@@H]21 [rOicP] (HELM PEPTIDE1{[dR].[O=C([C@@H]1C[C@@H]2CCCC[C@@H]2N1[*:1])[*:2]].P}$$$$V2.0) | most stable |
| Cc1ccc(C[C@H](NC(=O)[C@@H](C)NC(=O)[C@@H]2CCCN2C(=O)[C@@H]2C[C@@H]3CCCC[C@@H]3N2C(=O)[C@H](N)CCCN=C(N)N)C(N)=O)cc1 [rOicPaF(p-Me), D-Arg-Oic-Pro-D-Ala-Phe(p-Me)] (HELM PEPTIDE1{[dR].[O=C([C@@H]1C[C@@H]2CCCC[C@@H]2N1[*:1])[*:2]].P.[dA].[Cc1ccc(C[C@H](N[*:1])C(=O)[*:2])cc1].[am]}$$$$V2.0) | most stable |
| C[C@@H](NC(=O)[C@@H]1CCCN1C(=O)[C@@H]1C[C@@H]2CCCC[C@@H]2N1C(=O)[C@H](N)CCCNC(=N)N)C(=O)N[C@@H](Cc1ccccc1)C(N)=O [rOicPaF] (HELM PEPTIDE1{[dR].[O=C([C@@H]1C[C@@H]2CCCC[C@@H]2N1[*:1])[*:2]].P.[dA].F.[am]}$$$$V2.0) | most stable |

---

Reported half-life at 0.1 mg/ml values are given for each entry in this list.
# TEST_DESCRIPTION: stability testing in MES buffer (pH 6.5)
# Assay type: physicochemical
# ASSAY_CONDITIONS: 37° C., read-out: t1/2 (min) MES Buffer (pH 6.5)
Where a SMILES comes first, the peptide text is derived from it.
Give the value, in units of min, as a plain number.

| COMPOUND | UNITS_TEXT | half-life at 0.1 mg/ml |
| --- | --- | --- |
| Cc1ccc(C[C@H](NC(=O)[C@@H](C)NC(=O)[C@@H]2CCCN2C(=O)[C@@H]2C[C@@H]3CCCC[C@@H]3N2C(=O)[C@H](N)CCCN=C(N)N)C(N)=O)cc1 [rOicPaF(p-Me), D-Arg-Oic-Pro-D-Ala-Phe(p-Me)] (HELM PEPTIDE1{[dR].[O=C([C@@H]1C[C@@H]2CCCC[C@@H]2N1[*:1])[*:2]].P.[dA].[Cc1ccc(C[C@H](N[*:1])C(=O)[*:2])cc1].[am]}$$$$V2.0) | min | 363 |

Now consider a different compound.
Asked: Complete the entry with half-life at 0.1 mg/ml for N=C(N)NCCC[C@@H](N)C(=O)N1[C@H](C(=O)N2CCC[C@H]2C(=O)NCC(=O)N[C@@H](Cc2ccccc2)C(N)=O)C[C@@H]2CCCC[C@@H]21 [rOicPGF, D-Arg-Oic-Pro-Gly-Phe, reference compound] (HELM PEPTIDE1{[dR].[O=C([C@@H]1C[C@@H]2CCCC[C@@H]2N1[*:1])[*:2]].P.G.F.[am]}$$$$V2.0)
Given back: 179

---

Reported Papp values are given for each entry in this list.
# TEST_DESCRIPTION: rat intestinal in situ perfusion permeability
# Format: in vivo
# ASSAY_CONDITIONS: rat, rat jejunal in situ perfusion; read-out: Permeability (in situ)
Where a SMILES comes first, the peptide text is derived from it.
Give the value, in units of ×10⁻⁶ cm/s, as a plain number.

| MOLECULE | UNITS_TEXT | Papp |
| --- | --- | --- |
| C[C@@H](NC(=O)[C@@H]1CCCN1C(=O)[C@@H]1C[C@@H]2CCCC[C@@H]2N1C(=O)[C@H](N)CCCNC(=N)N)C(=O)N[C@@H](Cc1ccccc1)C(N)=O [rOicPaF] (HELM PEPTIDE1{[dR].[O=C([C@@H]1C[C@@H]2CCCC[C@@H]2N1[*:1])[*:2]].P.[dA].F.[am]}$$$$V2.0) | ×10⁻⁶ cm/s | 6.2 |

Asked: Complete the entry with Papp for N=C(N)NCCC[C@@H](N)C(=O)N1[C@H](C(=O)N2CCC[C@H]2C(=O)O)C[C@@H]2CCCC[C@@H]21 [rOicP] (HELM PEPTIDE1{[dR].[O=C([C@@H]1C[C@@H]2CCCC[C@@H]2N1[*:1])[*:2]].P}$$$$V2.0)
Given back: 7.6

---

# TEST_DESCRIPTION: rat intestinal in situ perfusion permeability
# Format: in vivo
# ASSAY_CONDITIONS: rat, from portal vein plasma during perfusion; read-out: Permeability (mesenteric)
Where a SMILES comes first, the peptide text is derived from it.
Reported Papp values are given for each entry in this list.
Give the value, in units of ×10⁻⁶ cm/s, as a plain number.

| MOLECULE | UNITS_TEXT | Papp |
| --- | --- | --- |
| C[C@@H](NC(=O)[C@@H]1CCCN1C(=O)[C@@H]1C[C@@H]2CCCC[C@@H]2N1C(=O)[C@H](N)CCCNC(=N)N)C(=O)N[C@@H](Cc1ccccc1)C(N)=O [rOicPaF] (HELM PEPTIDE1{[dR].[O=C([C@@H]1C[C@@H]2CCCC[C@@H]2N1[*:1])[*:2]].P.[dA].F.[am]}$$$$V2.0) | ×10⁻⁶ cm/s | 0.139 |
| N=C(N)NCCC[C@@H](N)C(=O)N1[C@H](C(=O)N2CCC[C@H]2C(=O)NCC(=O)N[C@@H](Cc2ccccc2)C(N)=O)C[C@@H]2CCCC[C@@H]21 [rOicPGF, D-Arg-Oic-Pro-Gly-Phe, reference compound] (HELM PEPTIDE1{[dR].[O=C([C@@H]1C[C@@H]2CCCC[C@@H]2N1[*:1])[*:2]].P.G.F.[am]}$$$$V2.0) | ×10⁻⁶ cm/s | 0.451 |

Now consider a different molecule.
Asked: Complete the entry with Papp for N=C(N)NCCC[C@@H](N)C(=O)N1[C@H](C(=O)N2CCC[C@H]2C(=O)O)C[C@@H]2CCCC[C@@H]21 [rOicP] (HELM PEPTIDE1{[dR].[O=C([C@@H]1C[C@@H]2CCCC[C@@H]2N1[*:1])[*:2]].P}$$$$V2.0)
Given back: 1.63

---

# TEST_DESCRIPTION: rat intestinal in situ perfusion permeability
# Assay type: in vivo
# ASSAY_CONDITIONS: male, Sprague-Dawley, rat, other: in situ jejunal perfusion, pH 6.5, rat jejunal in situ perfusion; read-out: Permeability (in situ)
Where a SMILES comes first, the peptide text is derived from it.
MEASURED_ENDPOINT: Papp (×10⁻⁶ cm/s)
Give the value, in units of ×10⁻⁶ cm/s, as a plain number.

Asked: Complete the entry with Papp for Cc1ccc(C[C@H](NC(=O)[C@@H](C)NC(=O)[C@@H]2CCCN2C(=O)[C@@H]2C[C@@H]3CCCC[C@@H]3N2C(=O)[C@H](N)CCCN=C(N)N)C(N)=O)cc1 [rOicPaF(p-Me), D-Arg-Oic-Pro-D-Ala-Phe(p-Me)] (HELM PEPTIDE1{[dR].[O=C([C@@H]1C[C@@H]2CCCC[C@@H]2N1[*:1])[*:2]].P.[dA].[Cc1ccc(C[C@H](N[*:1])C(=O)[*:2])cc1].[am]}$$$$V2.0)
Given back: 1
